# STUDY TARGET: FGFR3 (UniProt P22607)
# Sequence (P22607 whole entry, looked up): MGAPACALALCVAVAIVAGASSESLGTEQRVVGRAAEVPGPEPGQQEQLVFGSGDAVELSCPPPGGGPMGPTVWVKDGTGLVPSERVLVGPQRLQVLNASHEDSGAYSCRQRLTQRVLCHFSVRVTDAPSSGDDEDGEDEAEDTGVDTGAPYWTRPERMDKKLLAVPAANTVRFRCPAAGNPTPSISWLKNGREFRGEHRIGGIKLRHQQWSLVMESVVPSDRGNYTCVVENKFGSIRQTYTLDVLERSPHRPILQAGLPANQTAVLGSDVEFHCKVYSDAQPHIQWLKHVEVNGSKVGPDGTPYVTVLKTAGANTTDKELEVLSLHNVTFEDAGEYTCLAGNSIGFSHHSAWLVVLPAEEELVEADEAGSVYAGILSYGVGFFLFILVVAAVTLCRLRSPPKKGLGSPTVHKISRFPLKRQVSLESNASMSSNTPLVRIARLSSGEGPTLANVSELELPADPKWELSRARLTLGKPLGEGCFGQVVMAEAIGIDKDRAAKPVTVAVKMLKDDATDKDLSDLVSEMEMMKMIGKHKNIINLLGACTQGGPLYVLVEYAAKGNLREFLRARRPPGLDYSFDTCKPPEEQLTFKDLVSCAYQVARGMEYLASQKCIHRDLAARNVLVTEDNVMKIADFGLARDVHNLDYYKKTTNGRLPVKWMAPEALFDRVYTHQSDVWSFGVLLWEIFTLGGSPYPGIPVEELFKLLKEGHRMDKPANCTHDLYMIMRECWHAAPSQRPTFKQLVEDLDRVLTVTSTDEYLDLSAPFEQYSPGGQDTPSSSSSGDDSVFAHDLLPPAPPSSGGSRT
# PROTOCOL NOTES: phosphorylation enrichment, bacterial display (enrichment ratio); higher = better substrate or ligand; peptides without Tyr show the background;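 also: 11-residue human phosphosite peptides and single-mutation variants displayed on the E. coli surface, counted by deep sequencing, each peptide's frequency after selection divided by its frequency in the unselected input library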;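 also: frequency after pTyr selection over input frequency; kinase dosed for 20-30% of maximal phosphorylation in three min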
Decision: phosphorylation enrichment >= 0.8 yields true (1), all other cases yield false (0).

A selection of reference data follows.
VIEQRYNETWL [SLC2A4_Y56_S55R] ... false (0)
SDQRRYSLIDR [CLIP2_Y972] ... false (0)
RTTIHYNFMCN [TP53_Y234_C229R_YF] ... true (1)
GFAGKYIAMVM [CYP19A1_Y441_C437Y_YF] ... false (0)

query: Reported phosphorylation enrichment at or above 0.8? FSGQVYRQRRK [TH_Y230_D227G]
result: false (0)

query: Entry ANNQRYAFMPL [TMEM87B_Y460] : is its phosphorylation enrichment no less than 0.8?
result: false (0)

query: Record FRPHLYGTPSR [ADGRE2_Y670_S665F] ; criterion: phosphorylation enrichment no lower than 0.8. Met?
result: false (0)

query: Say whether REGAKYVSHCA [ASS1_Y113_G117C] shows phosphorylation enrichment of 0.8 or more.
result: false (0)

query: Hi team, for VDSAHYKLLET [DTX3L_Y385] , is the recorded phosphorylation enrichment at or above 0.8?
result: false (0)

query: Is the recorded value of phosphorylation enrichment equal to or greater than 0.8 for this sequence? QCTSAYPLQPE [NANS_Y188]
result: true (1)

query: Hi, just wondering whether PKSWNYELPAT [PROM1_Y34_A31S] shows phosphorylation enrichment of 0.8 or higher.
result: true (1)

query: Threshold query (phosphorylation enrichment >= 0.8) on CTTIPYNYMCN [TP53_Y234_H233P]
result: false (0)

query: I'd appreciate it if you could say whether SVVVPYEPPEF [TP53_Y220_V225F] has phosphorylation enrichment at least equal to 0.8.
result: false (0)

query: Given the entry SVVVPYEPPED [TP53_Y220_V225D] , answer whether its phosphorylation enrichment meets or surpasses 0.8.
result: false (0)

query: Determine whether this sequence has phosphorylation enrichment no lower than 0.8: NTGDDYDLFGG [PTPN11_Y63_Y62D_YF]
result: false (0)

query: Textbook exercise: given the entry FTNRSYDLDFD [MYC_Y12_N11S_YF] , state whether its phosphorylation enrichment is greater than or equal to 0.8.
result: false (0)

query: Is it the case that KTDKKYLMIEE [BAG3_Y451] has phosphorylation enrichment reaching or exceeding 0.8?
result: false (0)

query: For this sequence, is measured phosphorylation enrichment 0.8 or higher? ANSPVYVPTTR [GATA6_Y188_S184N]
result: false (0)

query: Hi team, for TSNQEYLFLSM [FGFR1_Y766_D768Y_YF] , is the recorded phosphorylation enrichment at or above 0.8?
result: true (1)

query: For this sequence, is measured phosphorylation enrichment 0.8 or higher? SVTCTYSPALD [TP53_Y126_N131D]
result: true (1)

query: Quick check, phosphorylation enrichment >= 0.8? SILTVYSKDNF [PANK2_Y400_A398T_YF]
result: false (0)

query: Please tell me: is the sequence SQGRQYQELPR [KCNH2_Y1009_R1005Q] at or over 0.8 in terms of phosphorylation enrichment?
result: false (0)

query: # check: phosphorylation enrichment of GFKVRYATGSI [FGFR1_Y210_W213G_YF] is greater than or equal to 0.8
result: false (0)

Data origin, for the record: the supplement of paper PMC10065799
